- EXPERIMENTAL_SYSTEM: HLA-B*0702 (Homo sapiens)
- ASSAY_OVERVIEW: biochemical
pIC50: −log10 of the molar value. No end group written: not given here.
PROPERTY: pIC50

| SEQUENCE_INPUT | ENDPOINT_RESULT |
| --- | --- |
| FPAAPTPAI [p53.76.F119] | 8.59 |
| FPILTIITL [p53.249.F1] | 8.19 |
| FPAPSWPI [p53.86.F118] | 6.92 |

====

Recorded pIC50 for the following molecules
- EXPERIMENTAL_SYSTEM: B*5301 (Homo sapiens, UniProt P01889, A329T/A93T/A95T/C349S/D201E/D98Y/E176V/E187L/E204Q/E69T/G107R/I218V/K202T/L105A/L119I/N104I/Q94N/R106L/R155S/R180L/S101N/S121R/S35A/S48A/T118I/V127L/V306I/V36M/Y140S/Y91F)
- ASSAY_OVERVIEW: biochemical
pIC50: −log10 of the molar value.

| SAMPLE_SMILES | pIC50 |
| --- | --- |
| CC(C)C[C@H](NC(=O)[C@@H]1CCCN1C(=O)[C@H](Cc1c[nH]c2ccccc12)NC(=O)[C@H](CO)NC(=O)[C@@H]1CCCN1C(=O)[C@H](C)NC(=O)[C@@H]1CCCN1C(=O)[C@@H](N)Cc1ccccc1)C(=O)O | 8.40 |
| CC(C)C[C@H](NC(=O)[C@@H]1CCCN1C(=O)[C@H](Cc1c[nH]c2ccccc12)NC(=O)[C@H](CO)NC(=O)[C@@H]1CCCN1C(=O)[C@@H](N)Cc1ccccc1)C(=O)N[C@@H](CO)C(=O)N[C@@H](CO)C(=O)N[C@@H](CO)C(=O)N[C@H](C(=O)O)C(C)C | 7.03 |
| CC[C@H](C)[C@H](NC(=O)[C@@H]1CCCN1C(=O)[C@@H](NC(=O)[C@@H]1CCCN1C(=O)[C@H](C)NC(=O)[C@H](C)NC(=O)[C@@H]1CCCN1C(=O)[C@H](C)NC(=O)[C@@H]1CCCN1C(=O)[C@@H](N)Cc1ccccc1)[C@@H](C)O)C(=O)O | 6.90 |
| CC[C@H](C)[C@H](NC(=O)[C@H](C)NC(=O)[C@@H]1CCCN1C(=O)[C@H](C)NC(=O)[C@@H]1CCCN1C(=O)[C@H](C)NC(=O)[C@@H](NC(=O)[C@@H]1CCCN1C(=O)[C@@H]1CCCN1C(=O)[C@@H](N)Cc1ccccc1)C(C)C)C(=O)O | 5.54 |

====

- EXPERIMENTAL_SYSTEM: B*5401 (Homo sapiens, UniProt P01889, A329T/C349S/D138N/D201E/E176V/E187T/E204Q/E69G/I76V/K202T/L119W/R155S/R180L/S121T/S35A/S48A/V127L/V306I/V36M/Y140L)
- ASSAY_OVERVIEW: biochemical

| COMPOUND | IC50 |
| --- | --- |
| CC(C)C[C@H](NC(=O)[C@@H]1CCCN1C(=O)[C@H](Cc1c[nH]c2ccccc12)NC(=O)[C@H](CO)NC(=O)[C@@H]1CCCN1C(=O)[C@H](C)NC(=O)[C@@H]1CCCN1C(=O)[C@@H](N)Cc1ccccc1)C(=O)O [p53.86.F1] | 9.1 nM |
| CC[C@H](C)[C@H](NC(=O)[C@H](C)NC(=O)[C@H](CCC(N)=O)NC(=O)[C@H](CO)NC(=O)[C@@H]1CCCN1C(=O)[C@H](CC(C)C)NC(=O)[C@@H]1CCCN1C(=O)[C@@H](N)Cc1ccccc1)C(=O)O [p53.33.F1] | 83 nM |
| CC(C)C[C@H](NC(=O)[C@@H]1CCCN1C(=O)[C@H](Cc1c[nH]c2ccccc12)NC(=O)[C@H](CO)NC(=O)[C@@H]1CCCN1C(=O)[C@@H](N)Cc1ccccc1)C(=O)N[C@@H](CO)C(=O)N[C@@H](CO)C(=O)N[C@@H](CO)C(=O)N[C@H](C(=O)O)C(C)C [p53.88.F1] | 0.3 nM |
| CC[C@H](C)[C@H](NC(=O)[C@@H](NC(=O)[C@@H](NC(=O)[C@@H](NC(=O)[C@@H](NC(=O)[C@H](CC(C)C)NC(=O)[C@@H](NC(=O)[C@@H]1CCCN1C(=O)[C@@H](N)Cc1ccccc1)[C@@H](C)CC)[C@@H](C)O)[C@@H](C)CC)[C@@H](C)CC)[C@@H](C)O)C(=O)O [p53.249.F119] | 1.8 nM |
| CC[C@H](C)[C@H](NC(=O)[C@@H]1CCCN1C(=O)[C@@H](NC(=O)[C@@H]1CCCN1C(=O)[C@H](C)NC(=O)[C@H](C)NC(=O)[C@@H]1CCCN1C(=O)[C@H](C)NC(=O)[C@@H]1CCCN1C(=O)[C@@H](N)Cc1ccccc1)[C@@H](C)O)C(=O)O [p53.74.F1110] | 5.3 nM |
| CC(C)C[C@H](NC(=O)[C@@H]1CCCN1C(=O)[C@H](Cc1c[nH]c2ccccc12)NC(=O)[C@H](CO)NC(=O)[C@@H]1CCCN1C(=O)[C@H](C)NC(=O)[C@@H]1CCCN1C(=O)[C@H](C)NC(=O)[C@@H]1CCCN1C(=O)[C@@H](N)Cc1ccccc1)C(=O)O [p53.84.F1] | 1.7 nM |

Value source: patent US20040048790A1
